Values from the supplement of paper PMC13380429

tested on: Caco-2; assay: cell viability relative to DMSO; higher = less toxic; details: 72 h; 1 nM
Would you mind telling me the reported cell viability of each entry?
# output: number + unit

Some solved cases for reference:
Compound	cell viability
CCS(=O)(=O)N(C)[C@@H]1c2cc(C#N)ccc2OC(C)(C)[C@H]1O.CCS(=O)(=O)N(C)[C@H]1c2cc(C#N)ccc2OC(C)(C)[C@@H]1O (racemic) [chromanol-(+/-)]	90.9%
CCS(=O)(=O)N1CCN(c2ccc(Nc3ncc(C(N)=O)c(NC4CC4)n3)cc2)CC1	99.6%
CO[C@H]1CC=C2CCN3CCC4=C(CC(=O)OC4)[C@]23C1	100%
N#C[C@@H]1C[C@@H]2C[C@@H]2N1C(=O)[C@@H](N)C12CC3CC(CC(O)(C3)C1)C2	101%
O=C(Nc1cccc(Br)c1)c1cccc(S(=O)(=O)N2CCCCCC2)c1	90.6%

For each listed entry, give its cell viability.
1. CC(C)C[C@H](CN)CC(=O)O
2. CC/C(=C(/CC)c1ccc(OP(=O)(O)O)cc1)c1ccc(OP(=O)(O)O)cc1
3. Cc1c(NC(=O)OC[C@@H]2COCCN2)cn2ncnc(Nc3ccc4c(cnn4Cc4cccc(F)c4)c3)c12

128%
84.6%
102%

---

test system: Vero E6; assay: cell viability relative to DMSO; higher = less toxic; settings: 72 h; 10 nM
Experimental Readout: cell viability (%)
Answers are plain numbers, in %.

Some solved cases for reference:
Compound	cell viability / %
C[C@@H](O)[C@H](N)C(=O)N1CCC[C@H]1C(=O)N1CCC[C@H]1C(=O)N[C@H](C(N)=O)[C@@H](C)O [rapastinel]	99.5
COc1cc2nc(N3CCN(C(=O)c4ccco4)CC3)nc(N)c2cc1OC [prazosin]	105
CCCCc1ncc(/C=C(\Cc2cccs2)C(=O)O)n1Cc1ccc(C(=O)O)cc1 [eprosartan]	97.7
COC(F)(F)C(Cl)Cl [methoxyflurane]	102
O=C(Oc1ccc([N+](=O)[O-])cc1)N1CCN(Cc2cccc(Oc3ccccc3)c2)CC1 [JZL-195]	103
Oc1ccc(Nc2nc(-c3ccc(Cl)cc3)cs2)cc1 [SKI-II]	104
O=C(O)c1ccccc1S [o-mercapto-benzoic-acid]	97.9
O=P(O)(O)CN(CCN(CP(=O)(O)O)CP(=O)(O)O)CP(=O)(O)O [EDTMP]	99.8
O=C(O)C1CSCN1 (stereo not given) [timonacic]	99.6
O=c1[nH]c(=O)n([C@H]2C[C@H](O)[C@@H](CO)O2)cc1Br [broxuridine]	107

For each listed entry, give its cell viability.
1. COc1cc(-n2cnc3cc(-c4ccc(Cl)cc4)sc3c2=O)ccc1OCCN1CCCC1
2. O=C(OCCOCCO)c1ccccc1Nc1cccc(C(F)(F)F)c1 [etofenamate]
3. CCCC(=O)Nc1ccc(OCC(O)CNC(C)C)c(C(C)=O)c1 (stereo not given) [acebutolol]
4. OC(CNCC(O)C1CCc2cc(F)ccc2O1)C1CCc2cc(F)ccc2O1 (stereo not given) [nebivolol]
5. CC(=O)Nc1c(I)c(C(=O)O)c(I)c(N(C)C(C)=O)c1I [metrizoic-acid]
6. N#C/C(=C\c1ccc(O)c(O)c1)C(=O)NCc1ccccc1 [AG-490]
7. COc1cc2ncnc(Nc3cccc(Cl)c3)c2cc1OC [tyrphostin-AG-1478]

1. 104
2. 103
3. 96.9
4. 102
5. 98.6
6. 98.2
7. 100

For each listed entry, give its cell viability.
1. O=C(c1ccccc1)c1ccc2n1CCC2C(=O)O (stereo not given) [ketorolac]
2. O=C1NC(=O)[C@@H](c2cn3c4c(cccc24)CCC3)[C@@H]1c1c[nH]c2ccccc12 [tivantinib]
3. CCN(CCO)CCCOc1ccc2c(Nc3cc(CC(=O)Nc4cccc(F)c4)[nH]n3)ncnc2c1 [barasertib-HQPA]
4. CC[C@@]1(O)C(=O)OCc2c1cc1n(c2=O)Cc2c-1nc1cc(F)c(C)c3c1c2[C@@H](N)CC3 [exatecan-mesylate]
5. COc1ccnc2[nH]cc(C(=O)C(=O)N3CCN(C(=O)c4ccccc4)C[C@H]3C)c12 [BMS-806]
6. COc1cccc2c1C(=O)c1c(O)c3c(c(O)c1C2=O)C[C@@](O)(/C(CO)=N/NC(=O)CCCCCN1C(=O)C=CC1=O)C[C@@H]3O[C@H]1C[C@H](N)[C@H](O)[C@H](C)O1 [aldoxorubicin]
7. Cc1cc([N+](=O)[O-])ccc1NS(=O)(=O)c1cc(Cl)ccc1Cl [FH-535]

104
99.8
96
91.8
102
101
102

What value of cell viability has been reported for the following compound? CC(=O)CCCCn1c(=O)c2c(ncn2C)n(C)c1=O [pentoxifylline]
110

---

Would you mind telling me the reported cell viability of each entry?
tested on: Vero E6; assay: cell viability relative to DMSO; higher = less toxic; conditions: 72 h; 10000 nM
Give bare numbers, in %.

Some solved cases for reference:
>>> df
                         structure_notation  experimental_readout  measure_unit  reported
0  O=C(CCCN1CCC(O)(c2ccc(Cl)cc2)CC1)c1ccc(F)cc1        cell viability             %      94.1
1       CCCCCCCCCCCCCCCC[N+](C)(C)Cc1ccccc1        cell viability             %      92.8

For each listed entry, give its cell viability.
1. COC(=O)Nc1ccc(-c2nc(N3CCOCC3)c3cnn(C4CCN(C(=O)OC)CC4)c3n2)cc1
2. NC(=O)C(c1ccccc1)(c1ccc(F)cc1)c1ccc(F)cc1

1: 64.8; 2: 92.9

---

tested on: Vero E6; assay: relative viability EC50 (midpoint between 100% and the lowest measured viability); higher = less toxic; details: 72 h
Experimental Readout: relative viability EC50

Some solved cases for reference:
Compound	relative viability EC50
COc1cccc2c1C(=O)c1c(O)c3c(c(O)c1C2=O)C[C@@](O)(/C(CO)=N/NC(=O)CCCCCN1C(=O)C=CC1=O)C[C@@H]3O[C@H]1C[C@H](N)[C@H](O)[C@H](C)O1 [aldoxorubicin]	1380 nM
CCOCOC[C@H](C[C@H](C)C(=O)NO)NC(=O)c1ccc(Oc2ccccc2)cc1 [ONO-4817]	> 10000 nM
NCCCNCCCCNCCCN [spermine]	> 10000 nM
Cc1cccc(/C=N/Nc2cc(N3CCOCC3)n3nc(-c4ccncc4)cc3n2)c1 [APY0201]	392 nM
CC(C)[N+](C)(CCC(C(N)=O)(c1ccccc1)c1ccccc1)C(C)C [isopropamide-iodide]	> 10000 nM
Cc1ccc(Cl)c(OC[C@H](O)CNC(C)C)c1 [1-(2-chloro-5-methylphenoxy)-3-(isopropylamino)-2-propanol]	> 10000 nM
CC(C)(C)n1nc(-c2ccc(Cl)cc2)c2c(N)ncnc21 [PP-2]	2490 nM

Could you now consider this next compound?
What value of relative viability EC50 has been reported for the following compound? O=C(Nc1ccc2[nH]ccc2c1)c1ccccc1 [OAC2]
> 10000 nM

---

Would you mind telling me the reported cell viability of each entry?
system: Vero E6; assay: cell viability relative to DMSO; higher = less toxic; conditions: 72 h; 1 nM
One number for each entry, in %.

                                   compound  reported
0  CC(=O)N1CCN(C)CC1 [1-acetyl-4-methylpiperazine]       105
1  COC(=O)c1ccc2c(c1)nc(NC(=O)c1ccccc1)n2CCCc1ccccc1 [BRD4770]       103

Could you now consider this next compound?
Notebook entry, Vero E6 assay: cell viability of c1cc2c3c(c1)c1c(n3CCNC2)CCCC1 [WAY-629] = ?
100

---

test system: HepG2; assay: cell viability relative to DMSO; higher = less toxic; conditions: 72 h; 100 nM
Experimental Readout: cell viability (%)
Give bare numbers, in %.

Some solved cases for reference:
Compound	Study System	cell viability, %
NCCCNCCCCNCCCN	HepG2	104
NC1(c2ccc(-c3nc4ccn5c(=O)[nH]nc5c4cc3-c3ccccc3)cc2)CCC1	HepG2	84.8
O=C(Nc1cccnn1)N1CCC(=Cc2cccc(Oc3ccc(C(F)(F)F)cn3)c2)CC1	HepG2	106

For each listed entry, give its cell viability.
1. NC1(Cc2ccc(Cl)cc2)CCN(c2ncnc3[nH]ccc23)CC1
2. COC(=O)Nc1ccc(-c2nc(N3CCOCC3)c3cnn(C4CCN(C(=O)OC)CC4)c3n2)cc1
3. O=C1NN(C(=O)Nc2ccc(Br)cc2)[C@@H](c2ccccc2)[C@@H]1c1ccccc1
4. N[C@@H](C[C@@H](F)C(=O)O)C(=O)O
5. C=CC[N@@+]12CC[C@@]34c5ccccc5N5/C=C6/[C@H]7C[C@H]8[C@@]9(CC[N@@+]8(CC=C)C/C7=C/CO)c7ccccc7N(/C=C(/[C@@H](C[C@@H]31)/C(=C\CO)C2)[C@H]54)[C@@H]69
6. O=c1ccc2cc(O[C@@H]3O[C@H](CO)[C@@H](O)[C@H](O)[C@H]3O)c(O)cc2o1
7. O=C1CC[C@@](c2ccccc2)(C2CCN(Cc3ccc(I)cc3)CC2)C(=O)N1 [iododexetimide]
8. CCCCCN(C)CCC(O)(P(=O)(O)O)P(=O)(O)O [ibandronate]

1: 94.5; 2: 94.8; 3: 91.1; 4: 109; 5: 98.2; 6: 97.4; 7: 92.5; 8: 112

For each listed entry, give its cell viability.
1. OCCNCCCOc1cccc(Cl)c1Cl
2. CC(C)[N+](C)(CCC(C(N)=O)(c1ccccc1)c1ccccc1)C(C)C [isopropamide-iodide]
3. COc1ccc2cc(CCC(C)=O)ccc2c1

89.7
93.5
105

For each listed entry, give its cell viability.
1. Cc1cc(F)c(Nc2ncnc3cc(OCc4ccccc4)ccc23)cc1O
2. COc1ccc2c(c1)[C@]13CCCC[C@@H]1[C@H](C2)N(C)CC3
3. O=C(O)Cc1ccc(OCc2ccccc2)c(Cl)c1
4. COc1cc2nc(N3CCN(C(=O)c4ccco4)CC3)nc(N)c2cc1OC
5. CC[C@@H]1C(=O)OC[C@@H]1Cc1cncn1C

1: 106; 2: 95.8; 3: 94.3; 4: 86.2; 5: 105
